- Test system: HDAC (Mouse Liver Extract)
- Construct: Mouse liver enzyme (10 mg/ml) was diluted 1:6 with HDAC buffer
- MEASUREMENT DESCRIPTION: HDAC inhibition assay using Boc-Lys(Ac)-AMC substrate, mouse liver enzyme
- Type: biochemical
- CONDITION DETAILS: 1 μM
PROPERTY: HDAC Inhibition % (1 μM) (%)

In [3]: df
Out[3]:
                            compound_smiles                  property  value_units  recorded_measurement
0  Nc1ccccc1NC(=O)c1ccc(C=C(C(=O)NC2CC2)c2ccccc2)cc1  HDAC Inhibition % (1 μM)            %                  34.1
1  COc1ccc(/C(=C\c2ccc(/C=C/C(=O)NO)cc2)C(=O)NC(C)C)cc1F  HDAC Inhibition % (1 μM)            %                  88.2
2  Nc1ccccc1NC(=O)c1ccc(/C=C(/C(=O)NC2CC2)c2c[nH]c3ccccc23)cc1  HDAC Inhibition % (1 μM)            %                  34.7
3  Cc1ccc(/C(=C\c2ccc(C(=O)NCCCCCC(=O)NO)cc2)C(=O)NC2CC2)cc1  HDAC Inhibition % (1 μM)            %                  86.1
4  O=C(/C=C/c1ccc(/C=C(/C(=O)Nc2ccccc2)c2cccc(OCC3CC3)c2)cc1)NO  HDAC Inhibition % (1 μM)            %                  81.4
5  COc1ccc(/C(=C\c2ccc(/C=C/C(=O)NO)cc2)C(=O)NC2CC2)cc1OC  HDAC Inhibition % (1 μM)            %                  86.9

1. O=C(NC1CC1)/C(=C/c1ccc(C(=O)NCc2ccc(C(=O)NO)cc2)cc1)c1ccc(F)c(F)c1
2. Nc1ccccc1NC(=O)/C=C/c1ccc(/C=C(/C(=O)NC2CC2)c2cccc(Cl)c2)cc1
Exam item: Which shows the larger HDAC Inhibition % (1 μM) value: 1 or 2 ? Give the label of your selection.
Marked response: 1
(1: 89.3%, 2: 41.6%)
